Values compiled from the supplement of paper PMC9170038.

Measured apparent KD of MS2 coat protein values are reported for all entries that follow.
Test system: MS2 coat protein
Assay: apparent KD of MS2 coat protein; higher = weaker reporter binding
Settings: Eterna round: R107; input ligand: theophylline 2 mM
Number only, in nM; omit the unit.

Answered cases to consult:
CUAUAUGGAAACAUAUAGAAGCGAAAGCAGCGAGGACCGGUACGGCCGCCACUCGCAGAGUGGUGGACAUGAGGAUCACCCAUGU [Design 2] ... 74.6
CUAUAUAUAUCGGCCGCCACUUACUCAUGAGGUAACAACAUGAGGAUCACCCAUGUUUGAGGAUCAAGGACCGGGAUAUAUAUAG [AstrosSSTryB#15] ... 32.6

Request: Return reported apparent KD of MS2 coat protein; argument: GGUACAUGAGGAUCACCCAUGUAUUAGUGCCGAGGACCGGUACGGCCGCCACUCGCUUCACAUGAGGAUCACCCAUGUGUCACAG [SSTA DOUBLE!!! :-D #13]
Response: 39.7

----------
Tested on: K4 kissing-loop RNA reporter
Experiment: apparent KD of K4 kissing-loop reporter; higher = weaker reporter binding
Settings: Eterna round: R107; input ligand: FMN 200 uM
ENDPOINT_NAME: apparent KD of K4 kissing-loop reporter (nM)
Express it in nM; write the number only.

CCGGCCCGGCCGGAUACCAGUGCGCCGCAGGGAACGGCGGGCCCAGAGUGAUGUUCGGGACACCCUUGGCAGCCGCCUGGGUCGC [#2 Same State - Theophylline B Attempt #27 (HarryS)] ... 286
GUGAGUGACGGAGGAUAUGCGAUAGAUGUAGGAAAAUUAGUGAUGUUAGUUAUGGUAGAGAUAGAAGUAGAAGGUUGGUGUGUGU [RHig 3/7] ... 551
AGUGAUGUUGUGUUAUGCUAGGGAAGUGAUCGAGGACCGGUACGGCCGCCACUCGAGUGAUGAGUGAGUGAUGUUUGUUUAGGGA [sdsmullin] ... 1100
UGACAUUGCUCAGAUACCAGACAUGAGCAUCAGCCAUGUGCCAAAUAAACGUACAUAAAUGUCCCUUGGCAGCUGAGCAAUGUCU [TheoBX 11] ... 53
GUAGACGUGCCUUCAGUGAUGUUGAAGGAUACCAGAUGUUACCACAUCCCUUGGCAGCCUUGGGAUAACAGUGAGUCGGUAUAUG [Ontierso] ... 255
CUGUACAUCUCGGCCGCCACUGACCUAAGUGAUGUUAGGAAUGAAACCUAGUGAUGUUAGCAAACCAGGACCGGGAGGUGUGCAG [KL-SSTryp-B4 #Double Kiss] ... 110

Request: Find the recorded apparent KD of K4 kissing-loop reporter belonging to AUUUAUGUAUCAGGAUAUUAGUGAUGUUUGUUUUUGUUAGUGAUGUUGAUAUUUGUUUUAUGUAUUUAAGAAGGGAUUGAGAUGU [wwewmullin] and report it.
Response: 58.2

Request: I'd like to know its apparent KD of K4 kissing-loop reporter. The sequence in question is GCGUAGGAAGAAGGAUAUCACAGGAUGCCACGUUAGUGAUGUUAAUUUGGUUCAGCGCGAUUCUGAUGAGAAGGUCUUUUAUGAU [theeternabot_sameState_KL_FMN_B_47]
Response: 220

Request: Request the reported apparent KD of K4 kissing-loop reporter associated with "GGUAGCAUGGCGGCCGCCACUCAUGUAGAUACCUACAUAGUAAGCAGUGAUGUUGCUUUGUGGUUGAGGACCGGGCCAUGCUACC"
Response: 167

Request: Which apparent KD of K4 kissing-loop reporter value belongs to CGUAGAUACUGAGGAUAUCAGAAAUCUGAUAUCAUCAGAGGUCUGAGUGAUGUUCAGAUGCGACUCUGAGAAGGCAGUAGGAGUC [FMN B Ex t2] ?
Response: 134

----------
Tested on: MS2 coat protein
Experiment: apparent KD of MS2 coat protein; designed switch direction (-1 OFF switch, 1 ON switch): -1; higher = weaker reporter binding
Conditions: Eterna round: R95; input ligand: microRNA oligo, concentration not stated
apparent KD of MS2 coat protein values by entry
Just the number in nM, nothing appended.

AAAAGAACAGGAUAUUCGGGAAAUAACAUGAGGAUCACCCAUGUUAACGCGGGUGAGAACGAAGAAGGGUUCUAAA [Atusceon] (puzzle: Exclusion 5) ... 96.4
GCAUGAAAUGUGAGGAUAUACCUCUGGAUACAUAGGUAGAAGGCACAUGAGGAUCACCCAUGUCCUAAACAUGC [Fiskers BMX 4 - 27] (puzzle: Brourd's mod of Exclusion 4) ... 32.2
AGACAGUCAGGAUAUACAUGAGGAUCACCCAUGUUGAGAAGAGAAAGGGCAGGAAGAGGUAGAAGGGACAAGAA [JR_Exclu3_Sub034] (puzzle: Exclusion 3) ... 25.7
AAUAAGCAAGGAUAUACGACGAAAAGCGUCAGUGGGCGAUGACAUGAGGAUCACCCAUGUAGAAGGUGCACAUC [Isragela] (puzzle: Exclusion 2) ... 125

API: the following record is the query input.
Request: // returns reported apparent KD of MS2 coat protein for input GCCAGAGCAGGAUAUCUAAUAUCUCACAUGAGGAUCACCCAUGUCCAGCGAAAGCUGGAGGGAGAAGGGCUCUGGC [Fiskers Ex 5 - 10] (puzzle: Exclusion 5)
Response: 49.8

----------
Test system: MS2 coat protein
Test: apparent KD of MS2 coat protein; designed switch direction (-1 OFF switch, 1 ON switch): 1; higher = weaker reporter binding
Conditions: input ligand: microRNA oligo, concentration not stated
Catalogue of apparent KD of MS2 coat protein values
State the answer as a number, implicitly in nM.

CAUUGGACAUCCAGUGAGACAUGAGGAUCACCCAUGUAGGCGCAGGAUAUGCGGGUUCGGUGCUCGCAGAAGGGUGAAGAAAAC [Veenin] (Eterna round: R96, puzzle: Same State NG 3) ... 98.2
GCUCGCACGAUGACCCACAUGAGGAUCACCCAUGUGUGUGGGCAGGAUAUCUAGAUUAAGGAUGUAGAGAAGGGUUGAGCGAGC [SameState NG3 #24] (Eterna round: R96, puzzle: Same State NG 3) ... 133
GUUACAUGAGGAUCACCCAUGUAUGUGUGGGAGUAAGUGUCUUAGGAUAUCUAUAAUUUAAAUUAAGAGAAGGAAGAUUGUUGU [JMF's solution 10] (Eterna round: R96, puzzle: Same State NG 3) ... 69.4

Request: Given the entry CCGAUGCAAAUAAAACAUGAGGAUCACCCAUGUGAGACACAUGAGGAUAUGCAGGUCAAAGACUUGCAGAAGGCAUAGCGUCGG [JL SSNG3 3.87] (Eterna round: R96, puzzle: Same State NG 3) , report its measured apparent KD of MS2 coat protein.
Response: 227

Request: What does the record list as apparent KD of MS2 coat protein for AGGGAGGAUGCAGGAUAUAUAAGACAUGAGGAUCACCCAUGUACCUCGUGGAGAAGAAAGGAGAGAUAGAAGGGUAGAGAGGAA [Default title] (Eterna round: R96, puzzle: Same State NG 2) ?
Response: 288

----------
System: K4 kissing-loop RNA reporter;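 also: bound reporter read as fluorescence of individual clusters on recovered sequencing chips by microscopy, with normalized cluster intensities fitted with a binding model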
Experiment: apparent KD of K4 kissing-loop reporter; higher = weaker reporter binding
Conditions: Eterna round: R107; input ligand: FMN 200 uM
Quick reference: apparent KD of K4 kissing-loop reporter of the listed items.
Report the value in nM with no unit label.

GUACACUCUCGAGUGAUGUUCGGUAAUAGAGAGGAUAUCGCUUUUGCGAGAAGGCUCUGAAUGAGGAAACUCGUUCUGUGUGUAC [FMN A 20] ... 906

Request: What apparent KD of K4 kissing-loop reporter value was documented for this sequence, GUCUCGAGUGAUGUUCGGGUCGUUUGGGAAGGAGCGCCCGGAAGGGCAGGUAGGUCGCCCGGACCGCGCGGGCAACCGCGCGGCC [#2 Same State - Arginine A Attempt #12 (HarryS)] ?
Response: 228

Request: Name the reported apparent KD of K4 kissing-loop reporter value associated with the sequence AAUAAAAUCACGGCCGCCACUGAUGUUAAUAUUAGCAGUGAUGUUGCUAUGUCGUUUUUCUUUAACAGGACCGGGUGAAUAUUUA [#22 K4 Tryptophan B Exclusion]
Response: 156

Request: Dear colleague, I am looking for the recorded apparent KD of K4 kissing-loop reporter of the following sequence: "GCCGUAGAUGGAAGGAGCGUGGUAGACUGUUGAAGUGAUGUUUCAACUCAUUAAGCCCAACCACAGGUAGGUCGCCAUCUACGGC"
Response: 133

Request: Param item = AAACAUCACUGGGAGUGAUGUUCUCAGUGACGAGGACCGGUACGGCCGCCACUCGCGAGAGAUAUAGUCAAGUAAUGACUGCAUU [Excl Tryptophan A V9] ; retrieve measured apparent KD of K4 kissing-loop reporter.
Response: 365

Request: Param item = ACCUCACAGUGAUGUUGUGAGCCGAUAGUGAAGGAUAUUGUAAAGUCAAGAAGGUCAUGUCAGUCACAAAACGUUAAGCCUCGCA [theeternabot_exclusion_KL_FMN_A_19] ; retrieve measured apparent KD of K4 kissing-loop reporter.
Response: 275
